- system under test: TEAD3 YAP50-100 (Homo sapiens)
- test description: TEAD3-YAP HTRF (TR-FRET) protein-protein interaction assay
- conditions: TEAD3, YAP peptide 50-100, HTRF; read-out: TEAD3 YAP50-100 HTRF combined: EC50
measure name: EC50
Hey, just the number and the unit after it is fine.

compound: C[C@H]1[C@@H](CF)CN1C(=O)c1c(-c2ncccn2)nn2c(=O)cc(-c3ccc(CC4CCCC4)cc3)[nH]c12 (single isomer, unassigned) [Isomer A, Example 43]
system under test: TEAD3 YAP50-100 (Homo sapiens)
EC50: 60 nM

Input: Which EC50 value is on record for CN(C)C(=O)c1nn2c(=O)cc(-c3ccc(CC4CCCC4)cc3)[nH]c2c1C(=O)N1CC(CF)C1 [Compound 2] ?
Output: 120 nM

Input: Which EC50 value is on record for Cc1ccnc(-c2nn3c(=O)cc(-c4ccc(C5CCCCC5)cc4)[nH]c3c2C(=O)N2CC(CF)C2)c1 [Compound 18] ?
Output: 90 nM

Input: Which EC50 value is on record for Cc1nccnc1-c1nn2c(=O)cc(-c3ccc(CC4CCCC4)cc3)[nH]c2c1C(=O)N1C[C@@H](CF)[C@H]1C (single isomer, unassigned) [Isomer A, Example 42] ?
Output: 320 nM

Input: Which EC50 value is on record for Cc1nccnc1-c1nn2c(=O)cc(-c3ccc(C4CCCCC4)cc3)[nH]c2c1C(=O)N1C[C@@H](CF)[C@H]1C (single isomer, unassigned) [Isomer A, Example 41] ?
Output: 530 nM

Input: Which EC50 value is on record for C[C@H](CO)c1nn2c(=O)cc(-c3ccc(C4CCCCC4)cc3)[nH]c2c1C(=O)N1CC(CF)C1 (single isomer, unassigned) [Enantiomer A, Example 55] ?
Output: 100 nM

Input: Which EC50 value is on record for CN(C)C(=O)c1nn2c(=O)cc(-c3cc(F)c(C4CCCCC4)c(F)c3)[nH]c2c1C(=O)N1CC(CF)C1 [Compound 3] ?
Output: 230 nM

Input: Which EC50 value is on record for CCc1ccnc(-c2nn3c(=O)cc(-c4ccc(C5CCCCC5)cc4)[nH]c3c2C(=O)N2CC(CF)C2)n1 [Compound 12] ?
Output: 190 nM

Input: Which EC50 value is on record for O=C(c1c(-c2nccc(C(F)(F)F)n2)nn2c(=O)cc(-c3ccc(C4CCCCC4)cc3)[nH]c12)N1CC(CF)C1 [Compound 11] ?
Output: 120 nM

----------
- system under test: TEAD3 TAZ (amino acids 13-57) (Homo sapiens)
- Sequence (Q99594 173-435 limits assumed): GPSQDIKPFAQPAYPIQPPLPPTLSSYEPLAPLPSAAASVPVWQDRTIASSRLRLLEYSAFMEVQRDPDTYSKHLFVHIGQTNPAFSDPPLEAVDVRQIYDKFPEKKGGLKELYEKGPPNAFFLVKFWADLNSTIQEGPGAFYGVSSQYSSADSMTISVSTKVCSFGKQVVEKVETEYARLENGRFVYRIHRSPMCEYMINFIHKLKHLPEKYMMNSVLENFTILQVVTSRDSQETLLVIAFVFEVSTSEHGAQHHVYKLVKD
- test description: TEAD3-TAZ HTRF (TR-FRET) protein-protein interaction assay
- conditions: TEAD3-TAZ HTRF, TR-FRET 665 nm/615 nm; read-out: TEAD3 TAZ HTRF combined: EC50
measure name: pEC50
Interpret pEC50 as the negative base-10 log of the concentration measured in mol/L.

compound structure string: Cn1cnc(-c2nn3c(=O)cc(-c4ccc(C5CCCCC5)cc4)[nH]c3c2C(=O)N2CC(CF)C2)c1
val: 7.22

compound structure string: CCCCc1ccc(-c2cc(=O)n3nc(-c4nccnc4C)c(C(=O)N4CC(CF)C4)c3[nH]2)cc1
val: 7.00

Input: Which pEC50 value is on record for Cc1nccnc1-c1nn2c(=O)cc(-c3ccc(C4CCCCC4)c(F)c3)[nH]c2c1C(=O)N1CC(CF)C1 ?
Output: 7.05

----------
- system under test: TEAD4 YAP50-100 (Homo sapiens)
- Sequence (Q15561 217-434 limits assumed): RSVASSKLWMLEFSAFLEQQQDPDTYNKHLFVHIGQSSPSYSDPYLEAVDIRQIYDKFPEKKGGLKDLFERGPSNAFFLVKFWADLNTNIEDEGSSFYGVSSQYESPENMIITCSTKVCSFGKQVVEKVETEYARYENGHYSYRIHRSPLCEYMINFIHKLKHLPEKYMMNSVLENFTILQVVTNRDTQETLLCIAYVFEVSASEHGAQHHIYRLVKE
- test description: TEAD4-YAP HTRF (TR-FRET) protein-protein interaction assay
- Type: binding
- conditions: TEAD4, YAP peptide 50-100, HTRF
measure name: TEAD4 YAP50-100 HTRF combined: Max % Inhibition (%)
Please state the figure in %; there is no need to write the unit.

compound: O=C(c1c(-c2cnccn2)nn2c(=O)cc(-c3ccc(CC4CCCC4)cc3)[nH]c12)N1CC(CF)C1 [Compound 25]
val: 45.5

compound: Cc1cnc(-c2nn3c(=O)cc(-c4ccc(C5CCCCC5)cc4)[nH]c3c2C(=O)N2CC(CF)C2)cn1 [Compound 26]
val: 44.5

Input: Which TEAD4 YAP50-100 HTRF combined: Max % Inhibition value is on record for O=C(c1c(-c2ncco2)nn2c(=O)cc(-c3ccc(C4CCCCC4)cc3)[nH]c12)N1CC(CF)C1 [Compound 19] ?
Output: 46.0

Input: Which TEAD4 YAP50-100 HTRF combined: Max % Inhibition value is on record for C[C@H]1[C@@H](CF)CN1C(=O)c1c(-c2cnccn2)nn2c(=O)cc(-c3ccc(CC4CCCC4)cc3)[nH]c12 (single isomer, unassigned) [Isomer B, Example 44] ?
Output: 50.5

Input: Which TEAD4 YAP50-100 HTRF combined: Max % Inhibition value is on record for C[C@H](CO)c1nn2c(=O)cc(-c3ccc(C4CCCCC4)cc3)[nH]c2c1C(=O)N1CC(CF)C1 (single isomer, unassigned) [Enantiomer A, Example 55] ?
Output: 42.0

Input: Which TEAD4 YAP50-100 HTRF combined: Max % Inhibition value is on record for CCCCCCC/C=C/c1cc(=O)n2nc(-c3nccnc3C)c(C(=O)N3C[C@H](CF)[C@@H]3C)c2[nH]1 [Compound 70] ?
Output: 58.0

Input: Which TEAD4 YAP50-100 HTRF combined: Max % Inhibition value is on record for O=C(c1c(-c2cnccn2)nn2c(=O)cc(-c3ccc(C4CCCCC4)c(F)c3)[nH]c12)N1CC(CF)C1 [Compound 23] ?
Output: 39.5

----------
- system under test: TEAD3 TAZ (amino acids 13-57) (Homo sapiens)
- test description: TEAD3-TAZ HTRF (TR-FRET) protein-protein interaction assay
- Assay type: binding
- conditions: TEAD3, TAZ peptide, HTRF
Label rule, in plain words: TEAD3 TAZ HTRF combined: Max % Inhibition of 60% and up is met, under 60% is not met.

compound: C[C@H]1[C@@H](CF)CN1C(=O)c1c(-c2cnccn2)nn2c(=O)cc(-c3ccc(CC4CCCC4)cc3)[nH]c12 (single isomer, unassigned) [Isomer A, Example 44]
system under test: TEAD3 TAZ (amino acids 13-57) (Homo sapiens)
category label: met

compound: Cc1nccnc1-c1nn2c(=O)cc(-c3ccc(C4CCCC4)cc3)[nH]c2c1C(=O)N1C[C@H](CF)[C@@H]1C [Compound 69]
system under test: TEAD3 TAZ (amino acids 13-57) (Homo sapiens)
category label: met

compound: C[C@@H]1[C@H](CF)CN1C(=O)c1c(-c2ncccn2)nn2c(=O)cc(-c3ccc(CC4CCCC4)cc3)[nH]c12 (single isomer, unassigned) [Isomer B, Example 43]
system under test: TEAD3 TAZ (amino acids 13-57) (Homo sapiens)
category label: met

compound: O=C(c1c(-c2cnccn2)nn2c(=O)cc(-c3ccc(CC4CCCC4)cc3)[nH]c12)N1CC(CF)C1 [Compound 25]
system under test: TEAD3 TAZ (amino acids 13-57) (Homo sapiens)
category label: not met

compound: CC(CO)c1nn2c(=O)cc(-c3ccc(C4CCCCC4)cc3)[nH]c2c1C(=O)N1CC[C@@H](C#N)C1 (single isomer, unassigned) [Final product obtained using Enantiomer A from Step 4, Example 54]
system under test: TEAD3 TAZ (amino acids 13-57) (Homo sapiens)
category label: met

compound: C[C@H]1[C@@H](CF)CN1C(=O)c1c(C(=O)N(C)C)nn2c(=O)cc(-c3ccc(C4CCCCC4)cc3)[nH]c12 [Compound 5]
system under test: TEAD3 TAZ (amino acids 13-57) (Homo sapiens)
category label: met

Input: Please check the record O=C(c1c(-c2cnco2)nn2c(=O)cc(-c3ccc(C4CCCCC4)cc3)[nH]c12)N1CC(CF)C1 [Compound 39] and state if its TEAD3 TAZ HTRF combined: Max % Inhibition is at or above 60%.
Output: not met

Input: Please check the record Cc1nccnc1-c1nn2c(=O)cc(-c3ccc(-c4ccccc4)cc3)[nH]c2c1C(=O)N1CC(CF)C1 [Compound 60] and state if its TEAD3 TAZ HTRF combined: Max % Inhibition is at or above 60%.
Output: met

Input: Please check the record COc1nccnc1-c1nn2c(=O)cc(-c3ccc(C4CCCCC4)cc3)[nH]c2c1C(=O)N1CC(CF)C1 [Compound 13] and state if its TEAD3 TAZ HTRF combined: Max % Inhibition is at or above 60%.
Output: not met

----------
EC50 values, listed per item
- system under test: TEAD1 TAZ (amino acids 13-57) (Homo sapiens)
- Sequence (P28347 167-426 limits assumed): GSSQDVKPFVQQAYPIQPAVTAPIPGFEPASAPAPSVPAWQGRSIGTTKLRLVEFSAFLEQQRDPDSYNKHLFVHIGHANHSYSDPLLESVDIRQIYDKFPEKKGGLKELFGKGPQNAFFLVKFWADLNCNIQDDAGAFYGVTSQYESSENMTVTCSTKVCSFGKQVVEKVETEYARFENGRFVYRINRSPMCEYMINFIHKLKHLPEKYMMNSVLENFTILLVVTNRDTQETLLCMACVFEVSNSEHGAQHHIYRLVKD
- test description: TEAD1-TAZ HTRF (TR-FRET) protein-protein interaction assay
- conditions: TEAD1-TAZ HTRF, TR-FRET 665 nm/615 nm; read-out: TEAD1 TAZ HTRF combined: EC50
Please state the figure in nM; there is no need to write the unit.

molecule: C[C@H]1[C@@H](CF)CN1C(=O)c1c(-c2ncccn2)nn2c(=O)cc(-c3ccc(CC4CCCC4)cc3)[nH]c12 (single isomer, unassigned) [Isomer A, Example 43]
val: 30
--
molecule: CC1CCN1C(=O)c1nn2c(=O)cc(-c3ccc(C4CCCCC4)cc3)[nH]c2c1C(=O)N1CC(CF)C1 (single isomer, unassigned) [Enantiomer A, Example 33]
val: 100
--
molecule: C[C@H]1[C@@H](CF)CN1C(=O)c1c(-c2cnccn2)nn2c(=O)cc(-c3ccc(CC4CCCC4)cc3)[nH]c12 (single isomer, unassigned) [Isomer B, Example 44]
val: 40
--
molecule: C[C@@H]1[C@H](CF)CN1C(=O)c1c(-c2ncccn2)nn2c(=O)cc(-c3ccc(CC4CCCC4)cc3)[nH]c12 (single isomer, unassigned) [Isomer B, Example 43]
val: 50

Now turn to the next molecule.
Input: Which EC50 value is on record for COc1ccnc(-c2nn3c(=O)cc(-c4ccc(C5CCCCC5)cc4)[nH]c3c2C(=O)N2CC(CF)C2)n1 ?
Output: 60
